tested on: Hs578T; experiment: Matrigel outgrowth assay/branching assay; type: cell-based; conditions: Homo sapiens, Hs-578T; HS578T cell line; Table Ib; read-out: Total branching inhibition in Matrigel HS578T
propertyName: IC50

Please review the entries below; each comes with its answer.
COc1cc2c(Oc3ccc(NS(=O)(=O)c4c(Cl)csc4Cl)cc3F)ccnc2cc1OCCCN1CCCCC1C (stereo not shown) = 10 to 25 µM
COc1cc2c(Oc3ccc(NS(=O)(=O)c4cccc(OC(F)F)c4)cc3F)ccnc2cc1OCCCN1CCCC(C)C1 (stereo not shown) = ≤ 10 µM
CCOC(=O)COc1cc2nccc(Oc3ccc(NS(=O)(=O)c4ccccc4F)cc3F)c2cc1OC = 10 to 25 µM
COc1cc2c(Oc3cc(NS(=O)(=O)c4cc(F)ccc4F)ccc3F)ccnc2cc1OCCCN1CCC(C)CC1 = ≤ 10 µM
COc1cc2c(Oc3ccc(NS(=O)(=O)c4cc(Cl)ccc4Cl)cc3F)ccnc2cc1OCCCN(C)C = ≤ 10 µM
COc1cc2c(Oc3ccc(NS(=O)(=O)c4ccccc4F)cc3F)ccnc2cc1OCCN1CCOCC1 = ≤ 10 µM
COc1cc2c(Oc3ccc(NS(=O)(=O)c4cc(Cl)cc(Cl)c4OC)cc3F)ccnc2cc1OCCCN1CCCCC1 = ≤ 10 µM
COc1cc2c(Oc3cccc(NS(=O)(=O)c4cccs4)c3)ccnc2cc1OCCCN1CCN(C)CC1 = ≤ 10 µM

q: So what's the measured IC50 for this one? COc1cc2c(Oc3cccc(NS(=O)(=O)c4c(C)noc4C)c3)ccnc2cc1OCCCN1CCN(C)CC1
a: 10 to 25 µM

q: Give the measured IC50 of COc1cc2c(Oc3ccc(NS(=O)(=O)c4cc(Cl)cc(Cl)c4OC)cc3F)ccnc2cc1OCCCN1CCN(C)CC1 .
a: ≤ 10 µM

q: Given COc1ccc2nccc(Oc3ccc(NS(=O)(=O)c4ccccc4OC(F)(F)F)cc3F)c2c1 , state its recorded IC50.
a: 10 to 25 µM

q: I'd like to know its IC50. The compound in question is COc1cc2c(Oc3ccc(NS(=O)(=O)c4ccccc4C)cc3F)ccnc2cc1OCCCN1CCCC(C)C1 (stereo not shown)
a: ≤ 10 µM

q: I'd like to know its IC50. The compound in question is COc1cc2c(Oc3cccc(NS(=O)(=O)c4cc(Cl)ccc4Cl)c3)ccnc2cc1OCCCN1CCN(C)CC1
a: ≤ 10 µM

q: Can you share its IC50? I mean this compound: COc1cc2c(Oc3ccc(NS(=O)(=O)c4csc5ccccc45)cc3F)ccnc2cc1OCCCN1CCN(C)CC1
a: 10 to 25 µM

q: Query (compound): COc1cc2c(Oc3cc(NS(=O)(=O)c4c(Cl)cccc4Cl)ccc3F)ccnc2cc1OCCCN1CCC(C)CC1 ; field requested: IC50
a: 10 to 25 µM

q: Reported IC50, compound COc1cc2c(Oc3ccc(NS(=O)(=O)c4cnc(C)[nH]4)cc3F)ccnc2cc1OCCCN1CCN(C)CC1 : ____
a: 10 to 25 µM

Data provenance is patent US9169241B2.
